Please find below log10(IC50) data on Estrogen receptor (Homo sapiens, UniProt P03372) compiled from the literature.
Target: Estrogen receptor (Homo sapiens, UniProt P03372)
Sequence (P03372 whole entry): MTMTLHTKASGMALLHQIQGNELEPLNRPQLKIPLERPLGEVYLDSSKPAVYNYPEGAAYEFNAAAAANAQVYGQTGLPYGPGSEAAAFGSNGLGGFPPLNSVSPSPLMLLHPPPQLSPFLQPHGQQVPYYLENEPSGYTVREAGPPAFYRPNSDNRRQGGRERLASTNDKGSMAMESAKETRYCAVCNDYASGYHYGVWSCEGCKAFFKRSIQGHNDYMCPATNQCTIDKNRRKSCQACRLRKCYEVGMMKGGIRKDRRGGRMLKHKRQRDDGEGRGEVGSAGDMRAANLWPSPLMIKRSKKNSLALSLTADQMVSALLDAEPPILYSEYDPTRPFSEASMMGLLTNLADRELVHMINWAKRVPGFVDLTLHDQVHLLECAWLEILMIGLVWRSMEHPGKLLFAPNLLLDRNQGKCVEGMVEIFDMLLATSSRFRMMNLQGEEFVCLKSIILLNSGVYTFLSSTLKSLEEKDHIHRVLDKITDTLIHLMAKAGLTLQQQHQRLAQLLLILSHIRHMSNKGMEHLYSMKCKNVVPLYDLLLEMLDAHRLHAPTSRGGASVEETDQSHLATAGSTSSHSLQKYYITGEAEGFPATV
Please interpret these as log10 of IC50 where IC50 is in nM.

Worked cases, answers included:
| COMPOUND | REPORTED VALUE |
| --- | --- |
| CN(CCCc1ccc(Cl)cc1)c1nc(NCCc2ccc(O)cc2)nc(N2CCN(CCO)CC2)n1 | 1.48 |
| CCCCCCCCCCCc1c(O)cc(O)c2c1O[C@H](c1ccc(O)cc1)CC2=O | 3.01 |
| O=C(c1ccc(N2CCN(C(=O)c3ccccc3Cl)CC2)cc1)c1c(-c2ccc(O)cc2)sc2cc(O)ccc12 | 0.24 |

Which log10(IC50) is reported for this compound? Oc1ccc([C@H]2Sc3cc(O)ccc3O[C@H]2c2ccc(OCCN3CCC4(CC3)OCCO4)cc2)cc1
0.30

Then what about the compound Oc1ccc([C@H]2Sc3cc(O)ccc3O[C@H]2c2ccc(OCCN3CCC(F)CC3)cc2)cc1 ?
0.40

Then what about the compound CC[C@H](C)[C@@H]1NC(=O)[C@H](NC(=O)[C@@H](N)CCCNC(=N)N)CSSC[C@@H](C(=O)N[C@@H](CCCNC(=N)N)C(=O)NC(CC(C)(C)C)C(=O)N[C@@H](CC(C)C)C(=O)N[C@@H](CCC(N)=O)C(N)=O)NC(=O)[C@H](CC(C)C)NC1=O (stereo partly drawn) ?
1.11

Then what about the compound N#Cc1cc(O)c(Br)c2ccc(-c3ccc(O)c(F)c3)cc12 ?
2.06

Then what about the compound OCCC/C(=C(\c1ccc(O)cc1)c1ccc2oc(CCN3CCCCC3)cc2c1)c1ccccc1 ?
2.82

Then what about the compound Oc1cccc(C2=Cc3ccc(O)cc3C23Cc2ccccc2C3)c1 ?
1.49

Then what about the compound CC(C)(C)[C@H]1Sc2cc(O)ccc2O[C@H]1c1ccc(OCCN2CCCCC2)cc1 ?
1.04

Then what about the compound CCCCCCCc1c(O)cc(O)c2c1O[C@H](c1ccc(O)cc1)CC2=O ?
2.59

Then what about the compound O=C1c2c(F)cc(O)cc2O[C@H](c2ccc(OCCN3CCCCC3)cc2)[C@@H]1c1ccc(O)cc1 ?
2.02

Then what about the compound Oc1ccc2cc(-c3ccccc3)ccc2c1 ?
3.13

Then what about the compound CCC1=C2c3ccc4[nH]nnc4c3C[C@]2(CC)CCC1=O ?
2.81

Then what about the compound Cc1c(O)ccc2c1oc(=O)c1c(C)c(O)ccc12 ?
2.20

Then what about the compound Oc1ccc2nc(-c3ccc(O)c(F)c3)oc2c1 ?
3.93

###

Target sequence: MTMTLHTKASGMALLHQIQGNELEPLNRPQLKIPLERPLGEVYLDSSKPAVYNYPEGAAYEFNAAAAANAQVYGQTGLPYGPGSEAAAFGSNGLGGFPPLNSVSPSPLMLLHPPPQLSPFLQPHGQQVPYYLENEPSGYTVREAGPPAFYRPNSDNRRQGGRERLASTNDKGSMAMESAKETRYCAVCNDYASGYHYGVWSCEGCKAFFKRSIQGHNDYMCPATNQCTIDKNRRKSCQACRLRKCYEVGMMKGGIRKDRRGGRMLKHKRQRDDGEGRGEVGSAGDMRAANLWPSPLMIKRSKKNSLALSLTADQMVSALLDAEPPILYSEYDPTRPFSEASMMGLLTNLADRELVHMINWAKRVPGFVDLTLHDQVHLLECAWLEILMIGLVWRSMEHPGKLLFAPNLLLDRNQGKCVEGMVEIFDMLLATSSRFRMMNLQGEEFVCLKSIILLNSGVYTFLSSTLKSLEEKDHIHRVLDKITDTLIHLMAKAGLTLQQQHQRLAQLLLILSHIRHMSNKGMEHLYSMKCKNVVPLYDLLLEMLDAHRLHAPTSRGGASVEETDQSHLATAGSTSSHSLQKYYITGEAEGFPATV
Please find below IC50 data on the protein given by its sequence compiled from the literature.
# value in nM; strip the unit string

Which IC50 is reported for this compound? CCC12CCC(=O)C(C)=C1c1ccc3[nH]nnc3c1C2 (stereo unspecified)
1900

Then what about the compound N#Cc1cc(O)cc2c1oc1c(=O)c3c(O)cc(O)cc3oc12 ?
1550

Then what about the compound N#Cc1cc(-c2ccc(O)c(F)c2)cc2ccc(O)c(F)c12 ?
312

###

Please find below IC50 data on the protein given by its sequence compiled from the literature.
Target chain: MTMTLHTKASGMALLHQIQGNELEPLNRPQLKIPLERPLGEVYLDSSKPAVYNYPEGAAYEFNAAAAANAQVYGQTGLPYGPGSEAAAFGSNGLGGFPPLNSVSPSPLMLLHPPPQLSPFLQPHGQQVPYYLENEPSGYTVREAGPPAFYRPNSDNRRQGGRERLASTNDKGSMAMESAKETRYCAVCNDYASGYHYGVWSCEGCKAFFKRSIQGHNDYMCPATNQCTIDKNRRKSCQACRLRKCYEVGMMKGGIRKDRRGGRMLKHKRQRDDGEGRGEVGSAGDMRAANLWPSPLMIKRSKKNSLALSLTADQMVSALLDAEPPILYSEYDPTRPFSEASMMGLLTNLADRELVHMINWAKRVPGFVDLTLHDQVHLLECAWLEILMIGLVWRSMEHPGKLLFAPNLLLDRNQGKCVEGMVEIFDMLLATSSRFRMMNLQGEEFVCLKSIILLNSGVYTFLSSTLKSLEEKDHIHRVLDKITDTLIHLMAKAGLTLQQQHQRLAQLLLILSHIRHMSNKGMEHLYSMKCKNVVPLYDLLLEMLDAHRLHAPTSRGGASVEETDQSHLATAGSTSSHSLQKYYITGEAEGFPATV
# value in µM; strip the unit string

| COMPOUND | QUANTITY UNIT | REPORTED VALUE |
| --- | --- | --- |
| C=C1CC[C@@H](O)[C@]2(C)CC[C@@](O)(C(C)C)[C@H](O)[C@@H]12 | µM | 2800 |
| CC12CCC(=O)C(Br)=C1c1ccc3[nH]ncc3c1C2 (racemic) | µM | 1.99 |
| C=Cc1cc(O)cc2nc(-c3c(F)cc(O)cc3F)oc12 | µM | 0.249 |
| CC(C)[C@H]1Sc2cc(O)ccc2O[C@H]1c1ccc(OCCN2CCCCC2)cc1 | µM | 0.007 |

The record that follows has no IC50 shown yet.
Look up IC50 with the protein given by its sequence for this compound: N#Cc1cc(O)c(C#N)c2ccc(-c3ccc(O)c(F)c3)cc12
0.877

###

Please find below IC50 data on Estrogen receptor (Homo sapiens) compiled from the literature.
# value in nM; strip the unit string

| MOLECULE | IC50, nM |
| --- | --- |
| CCCCC12CCC(=O)C(C)=C1c1ccc3[nH]ncc3c1C2 (racemic) | 1050 |
| CCCC1=C2c3ccc4[nH]nnc4c3CC2(CCC)CCC1=O (stereo unspecified) | 344 |
| O/N=C1\c2ccc(O)cc2O[C@H](c2ccc(OCCN3CCCCC3)cc2)[C@@H]1c1ccc(O)cc1 | 1040 |

Which IC50 is reported for this molecule? Oc1ccc(-c2ccc3ccccc3c2)cc1
638

Then what about the molecule Oc1cccc(C2=Cc3cc(O)ccc3C23Cc2ccccc2C3)c1 ?
35

Then what about the molecule Cc1c(O)cc(C#N)c2cc(-c3ccc(O)c(F)c3)ccc12 ?
406

###

Please find below IC50 data on UniProtKB P03372 compiled from the literature.
Field: label. Allowed values: class 1 (IC50 < 700 nM) or class 0 (IC50 >= 700 nM).

Please check: IC50 for CC(C)[C@H]1C(=O)c2ccc(O)cc2O[C@@H]1c1ccc(OCCN2CCCCC2)cc1 , strictly under 700 nM or not?
class 1

Then what about the molecule COc1ccc(-c2nc(Cl)cc(Nc3ccc(NC(=O)CN4CCCC4)cc3)n2)cc1 ?
class 0

Then what about the molecule CCCCC12CCC(=O)C(Br)=C1c1ccc3nn[nH]c3c1C2 (racemic) ?
class 1

Then what about the molecule COc1cccc2c1-c1ccc(NS(C)(=O)=O)c(Br)c1C(c1ccccc1)O2 (stereo not given) ?
class 0

Then what about the molecule C[C@@H]1Cc2c([nH]c3ccccc23)[C@@H](c2c(F)cc(NC3CN(CCC(F)F)C3)cc2F)N1CC(F)(F)CO ?
class 1

Then what about the molecule CC[C@]12CCC(=O)C(C)=C1c1ccc3[nH]ncc3c1C2 ?
class 0

Then what about the molecule CS(=O)(=O)c1ccc(C(CCCCO[N+](=O)[O-])=C(c2ccc(F)cc2)c2ccc(F)cc2)cc1 ?
class 0

Then what about the molecule Oc1ccc([C@H]2Sc3cc(O)ccc3O[C@H]2c2ccc(OCCN3C4CCC3CC4)cc2)cc1 ?
class 1

Then what about the molecule CCSC1=C(c2ccc(O)cc2)C(=O)c2cc(O)cc(O)c21 ?
class 1
